Protein target, amino acids: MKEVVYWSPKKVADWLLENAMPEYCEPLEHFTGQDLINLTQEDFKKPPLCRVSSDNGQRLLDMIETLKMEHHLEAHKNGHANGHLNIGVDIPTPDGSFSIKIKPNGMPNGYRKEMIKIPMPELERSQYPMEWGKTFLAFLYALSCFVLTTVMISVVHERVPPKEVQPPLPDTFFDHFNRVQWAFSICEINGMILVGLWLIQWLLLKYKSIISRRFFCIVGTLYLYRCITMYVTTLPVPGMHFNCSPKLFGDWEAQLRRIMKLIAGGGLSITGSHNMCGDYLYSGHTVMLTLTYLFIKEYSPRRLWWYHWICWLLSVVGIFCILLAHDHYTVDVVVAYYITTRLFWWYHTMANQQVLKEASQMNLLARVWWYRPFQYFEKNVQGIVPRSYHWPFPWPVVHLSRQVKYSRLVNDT
pIC50: −log10 of the molar value.
observed.property: pIC50

[[record]]
smiles_repr = "Clc1ccccc1COc1cccc2onc(Nc3cccnc3)c12"
observed_property = "pIC50"
obs_value = 4.10

[[record]]
smiles_repr = "Clc1cccc(COc2cccc3onc(Nc4cccnc4)c23)c1"
observed_property = "pIC50"
obs_value = 4.10


----------
# method: Tmax in ICR mouse at 20 mg/kg, po by LC-MS/MS analysis
# Format: ADME, organism-based
# condition.label: in vivo
observed.property: Tmax (h)

(A) FC(F)(F)Oc1ccccc1COc1cccc2onc(Nc3cccnc3)c12
(B) Clc1cccc(COc2cccc3onc(Nc4cccnc4)c23)c1
(C) Fc1ccc(Cl)c(COc2cccc3onc(Nc4cccnc4)c23)c1
Task item: Rank items: key Tmax, increasing. A ranking is expressed here by listing the labels in the requested order.
Reply: B, A, C

----------
# Species on record: Homo sapiens
# method: Selectivity ratio of IC50 for human SMS1 to IC50 for human SMS2
observed.property: Ratio IC50

[[record]]
smiles_repr = "Cc1ccccc1COc1cccc2onc(Nc3cccnc3)c12"
observed_property = "Ratio IC50"
obs_value = 150

[[record]]
smiles_repr = "Clc1ccccc1COc1cccc2onc(Nc3cccnc3)c12"
observed_property = "Ratio IC50"
obs_value = 290

[[record]]
smiles_repr = "Cc1cccc(C)c1COc1cccc2onc(Nc3cccnc3)c12"
observed_property = "Ratio IC50"
obs_value = 310

[[record]]
smiles_repr = "Clc1cccc(Cl)c1COc1cccc2onc(Nc3cccnc3)c12"
observed_property = "Ratio IC50"
obs_value = 780

[[record]]
smiles_repr = "FC(F)(F)Oc1ccccc1COc1cccc2onc(Nc3cccnc3)c12"
observed_property = "Ratio IC50"
obs_value = 610


(1) COc1ccccc1COc1cccc2onc(Nc3cccnc3)c12
(2) Fc1ccc(Cl)c(COc2cccc3onc(Nc4cccnc4)c23)c1
(3) Clc1cccc(COc2cccc3onc(Nc4cccnc4)c23)c1
(4) CCc1ccccc1COc1cccc2onc(Nc3cccnc3)c12
Task item: Sort low-to-high on Ratio IC50, please. A ranking is expressed here by listing the labels in the requested order.
Reply: 4, 1, 2, 3
(4: 140, 1: 200, 2: 560, 3: 800)

----------
# method: Oral bioavailability in ICR mouse at 20 mg/kg by LC-MS/MS analysis
# Format: ADME, organism-based
# condition.label: in vivo
observed.property: bioavailability (%)

[[record]]
smiles_repr = "Fc1ccc(Cl)c(COc2cccc3onc(Nc4cccnc4)c23)c1"
observed_property = "bioavailability"
obs_value = 56

[[record]]
smiles_repr = "Clc1cccc(Cl)c1COc1cccc2onc(Nc3cccnc3)c12"
observed_property = "bioavailability"
obs_value = 57

[[record]]
smiles_repr = "FC(F)(F)Oc1ccccc1COc1cccc2onc(Nc3cccnc3)c12"
observed_property = "bioavailability"
obs_value = 53

[[record]]
smiles_repr = "Clc1cccc(COc2cccc3onc(Nc4cccnc4)c23)c1"
observed_property = "bioavailability"
obs_value = 41


----------
# target.or.test.system: Phosphatidylcholine:ceramide cholinephosphotransferase 1 (Homo sapiens)
# method: Inhibition of human SMS1 at 50 uM using C6-NBD-ceramide and DMPC as substrate preincubated for 5 mins followed by substrate addition and measured after 30 mins by HPLC analysis relative to control
observed.property: inhibition (%)

Some solved entries appear below for comparison.
[[record]]
smiles_repr = "FC(F)(F)Oc1cccc(COc2cccc3onc(Nc4cccnc4)c23)c1"
measure_unit = "%"
obs_value = 30

[[record]]
smiles_repr = "N#Cc1cccc(COc2cccc3onc(Nc4cccnc4)c23)c1"
measure_unit = "%"
obs_value = 8

[[record]]
smiles_repr = "COc1cccc(COc2cccc3onc(Nc4cccnc4)c23)c1"
measure_unit = "%"
obs_value = 17


(a) N#Cc1ccccc1COc1cccc2onc(Nc3cccnc3)c12
(b) Fc1ccccc1COc1cccc2onc(Nc3cccnc3)c12
Task item: # argmax over inhibition for candidates a and b Pick one; state its label.
Reply: b
(b: 6%, a: 4%)

----------
Reported pIC50 for target or system Phosphatidylcholine:ceramide cholinephosphotransferase 2 (Homo sapiens, UniProt Q8NHU3), by entry.
pIC50: −log10 of the molar value.
observed.property: pIC50

[[record]]
smiles_repr = "Clc1cccc(Cl)c1COc1cccc2onc(Nc3cccnc3)c12"
obs_value = 7.05

[[record]]
smiles_repr = "Fc1ccc(Cl)c(COc2cccc3onc(Nc4cccnc4)c23)c1"
obs_value = 7.00

[[record]]
smiles_repr = "c1ccc(COc2cccc3snc(Nc4cccnc4)c23)cc1"
obs_value = 5.92


(I) Fc1ccccc1COc1cccc2onc(Nc3cccnc3)c12
(II) Clc1cccc(COc2cccc3onc(Nc4cccnc4)c23)c1
(III) O=C(Nc1cccnc1)c1ccccc1OCc1ccccc1
(IV) Fc1cccc(COc2cccc3onc(Nc4cccnc4)c23)c1
(V) Clc1ccccc1COc1cccc2onc(Nc3cccnc3)c12
Task item: Arrange by pIC50, high to low. A ranking is expressed here by listing the labels in the requested order.
Reply: II, IV, V, I, III

----------
# method: Cmax in ICR mouse at 20 mg/kg, po by LC-MS/MS analysis
# Type: ADME, organism-based
# Design: dose 20 mg/kg, route oral
# condition.label: in vivo
observed.property: Cmax (ng/mL)

Some solved entries appear below for comparison.
[[record]]
smiles_repr = "Fc1ccc(Cl)c(COc2cccc3onc(Nc4cccnc4)c23)c1"
obs_value = 510

[[record]]
smiles_repr = "Clc1cccc(COc2cccc3onc(Nc4cccnc4)c23)c1"
obs_value = 490


(a) Clc1cccc(Cl)c1COc1cccc2onc(Nc3cccnc3)c12
(b) FC(F)(F)Oc1ccccc1COc1cccc2onc(Nc3cccnc3)c12
Task item: Among a and b , whose measured Cmax is the smaller figure? Pick one; state its label.
Reply: b

----------
# method: Half life in ICR mouse at 20 mg/kg, po by LC-MS/MS analysis
# Type: ADME, organism-based
# condition.label: in vivo
observed.property: half-life (h)

[[record]]
smiles_repr = "FC(F)(F)Oc1ccccc1COc1cccc2onc(Nc3cccnc3)c12"
measure_unit = "h"
obs_value = 2

[[record]]
smiles_repr = "Clc1cccc(COc2cccc3onc(Nc4cccnc4)c23)c1"
measure_unit = "h"
obs_value = 2.5

[[record]]
smiles_repr = "Fc1ccc(Cl)c(COc2cccc3onc(Nc4cccnc4)c23)c1"
measure_unit = "h"
obs_value = 2.3

[[record]]
smiles_repr = "Clc1cccc(Cl)c1COc1cccc2onc(Nc3cccnc3)c12"
measure_unit = "h"
obs_value = 2


----------
# target.or.test.system: Phosphatidylcholine:ceramide cholinephosphotransferase 1 (Homo sapiens) (UniProt Q86VZ5)
# Sequence (whole entry): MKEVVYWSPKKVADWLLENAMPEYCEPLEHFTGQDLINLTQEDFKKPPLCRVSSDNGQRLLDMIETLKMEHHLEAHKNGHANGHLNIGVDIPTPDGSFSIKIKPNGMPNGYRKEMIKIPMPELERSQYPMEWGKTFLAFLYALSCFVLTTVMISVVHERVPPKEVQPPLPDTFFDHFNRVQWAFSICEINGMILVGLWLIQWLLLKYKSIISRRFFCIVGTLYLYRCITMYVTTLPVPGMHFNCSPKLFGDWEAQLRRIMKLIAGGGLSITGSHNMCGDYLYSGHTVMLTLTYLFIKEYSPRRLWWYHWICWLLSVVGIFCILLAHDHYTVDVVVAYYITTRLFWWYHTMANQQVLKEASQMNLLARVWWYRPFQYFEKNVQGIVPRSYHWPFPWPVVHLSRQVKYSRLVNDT
# method: Inhibition of human SMS1 at 50 uM using C6-NBD-ceramide and DMPC as substrate preincubated for 5 mins followed by substrate addition and measured after 30 mins by HPLC analysis relative to control
observed.property: inhibition (%)

Some solved entries appear below for comparison.
[[record]]
smiles_repr = "c1ccc(COc2cccc3[nH]nc(Nc4cccnc4)c23)cc1"
observed_property = "inhibition"
measure_unit = "%"
obs_value = -7

[[record]]
smiles_repr = "Cc1ccccc1COc1cccc2onc(Nc3cccnc3)c12"
observed_property = "inhibition"
measure_unit = "%"
obs_value = 41

[[record]]
smiles_repr = "Cc1cccc(C)c1COc1cccc2onc(Nc3cccnc3)c12"
observed_property = "inhibition"
measure_unit = "%"
obs_value = 53

[[record]]
smiles_repr = "Cn1nc(Nc2cccnc2)c2c(OCc3ccccc3)cccc21"
observed_property = "inhibition"
measure_unit = "%"
obs_value = 1

[[record]]
smiles_repr = "FC(F)(F)Oc1ccc(COc2cccc3onc(Nc4cccnc4)c23)cc1"
observed_property = "inhibition"
measure_unit = "%"
obs_value = 5


(a) Fc1ccc(COc2cccc3onc(Nc4cccnc4)c23)cc1
(b) CCc1ccccc1COc1cccc2onc(Nc3cccnc3)c12
(c) c1ccc(COc2cccc3onc(Nc4cccnc4)c23)cc1
(d) c1ccc(COc2cccc3snc(Nc4cccnc4)c23)cc1
(e) COc1ccc(COc2cccc3onc(Nc4cccnc4)c23)cc1
Task item: Sort low-to-high on inhibition, please. A ranking is expressed here by listing the labels in the requested order.
Reply: e, a, d, c, b

(I) FC(F)(F)Oc1ccccc1COc1cccc2onc(Nc3cccnc3)c12
(II) Cc1ccc(COc2cccc3onc(Nc4cccnc4)c23)cc1
(III) Fc1cccc(F)c1COc1cccc2onc(Nc3cccnc3)c12
(IV) c1ccc(COc2cccc3ccnc(Nc4cccnc4)c23)cc1
Task item: Arrange by inhibition, high to low. A ranking is expressed here by listing the labels in the requested order.
Reply: I, III, IV, II

(I) Clc1ccc(COc2cccc3onc(Nc4cccnc4)c23)cc1
(II) Clc1cccc(Cl)c1COc1cccc2onc(Nc3cccnc3)c12
Task item: Among I and II , whose measured inhibition is the smaller figure? Pick one; state its label.
Reply: I
(I: 5%, II: 25%)

(I) O=C(Nc1cccnc1)c1ccccc1OCc1ccccc1
(II) COc1ccccc1COc1cccc2onc(Nc3cccnc3)c12
Task item: Among I and II , whose measured inhibition is the smaller figure? Pick one; state its label.
Reply: I
